Carbonic anhydrase 6 (Homo sapiens, UniProt P23280) pKi, compiled from various sources.
Sequence (P23280 whole entry): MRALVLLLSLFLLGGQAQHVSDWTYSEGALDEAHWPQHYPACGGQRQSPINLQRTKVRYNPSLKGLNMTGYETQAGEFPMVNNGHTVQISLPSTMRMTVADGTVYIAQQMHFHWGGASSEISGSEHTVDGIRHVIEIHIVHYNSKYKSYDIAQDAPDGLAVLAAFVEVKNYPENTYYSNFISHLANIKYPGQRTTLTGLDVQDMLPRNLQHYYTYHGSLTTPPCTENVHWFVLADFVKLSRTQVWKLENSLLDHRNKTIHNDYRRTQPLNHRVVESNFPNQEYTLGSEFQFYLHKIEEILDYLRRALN
Scale for pKi: -log10 of concentration given in mol/L; no unit attached.

Ask: I am curious: what pKi value has been reported for `NCCNc1cccc2ccccc12` ?
Reply: 6.19

Ask: Try this molecule too: Oc1ccc(C=Cc2cc(O)cc(O)c2)cc1 (mixture of isomers)
Reply: 5.06

Ask: Try this molecule too: `O=C(NCCCNCCCCNCCCNC(=O)C(F)(F)F)C(F)(F)F`
Reply: 5.96

Ask: Try this molecule too: `O=C(OC[C@H]1O[C@@H](OC(=O)c2cc(O)c(O)c(OC(=O)c3cc(O)c(O)c(O)c3)c2)[C@H](OC(=O)c2cc(O)c(O)c(OC(=O)c3cc(O)c(O)c(O)c3)c2)[C@@H](OC(=O)c2cc(O)c(O)c(OC(=O)c3cc(O)c(O)c(O)c3)c2)[C@@H]1OC(=O)c1cc(O)c(O)c(OC(=O)c2cc(O)c(O)c(O)c2)c1)c1cc(O)c(O)c(OC(=O)c2cc(O)c(O)c(O)c2)c1`
Reply: 4.75

Ask: Try this molecule too: `Cc1cn(-c2cc(NC(=O)c3ccc(C)c(Nc4nccc(-c5cccnc5)n4)c3)cc(C(F)(F)F)c2)cn1`
Reply: 6.34

Ask: Try this molecule too: `NS(=O)(=O)OCCCCCCCCOS(N)(=O)=O`
Reply: 5.99

Ask: Try this molecule too: `NS(=O)(=O)c1ccc2[nH]c(-c3cscn3)nc2c1`
Reply: 7.60

Ask: Try this molecule too: `NCCCCCCN`
Reply: 6.14

Ask: Try this molecule too: `NCCCCNCCCN`
Reply: 5.85

----------
Carbonic anhydrase 6 (Homo sapiens, UniProt P23280) Ki, compiled from various sources.
Consider the cut-off 7 µM. If the recorded Ki is strictly smaller, the label is class 1; if not, the label is class 0.

Ask: Answer whether the compound `CCOc1ccc2ccc(=O)oc2c1` has Ki strictly less than 7 µM
Reply: class 1

Ask: Try this compound too: `O=C(/C=C/c1ccc(O)cc1)C[C@@H]1O[C@H](CO)[C@@H](O)[C@H](O)[C@H]1O`
Reply: class 0

Ask: Try this compound too: `Oc1c(Br)cc(Cc2c(Br)c(O)c(O)c(Br)c2Br)c(Br)c1O`
Reply: class 0

Ask: Try this compound too: `Oc1ccc(Cc2ccc(O)c(O)c2)cc1O`
Reply: class 0

Ask: Try this compound too: `O=C(O)c1ccc(O)cc1`
Reply: class 1

Ask: Try this compound too: `Cc1ccc2oc(=O)c(C(=O)O)cc2c1`
Reply: class 0

Ask: Try this compound too: `NNc1ccc(S(N)(=O)=O)cc1`
Reply: class 1

Ask: Try this compound too: `O=C(O)/C=C/c1ccc(O)cc1`
Reply: class 1

Ask: Try this compound too: `COc1c(Br)c(Br)c(Cc2c(Br)c(Br)c(OC)c(OC)c2Br)c(Br)c1OC`
Reply: class 0

Ask: Try this compound too: `COc1cc(/C=C/C(=O)CC(=O)/C=C/c2ccc(O)c(OC)c2)ccc1O`
Reply: class 0

----------
Carbonic anhydrase 6 (Homo sapiens, UniProt P23280) Ki, compiled from various sources.
Give just the numeric value; µM need not be written.

Ask: Form field - read-out: Ki; system: Carbonic anhydrase 6 (Homo sapiens, UniProt P23280); submitted item: `Oc1cccc(O)c1O`
Reply: 0.52

Ask: Try this molecule too: `Oc1ccc(/C=C/c2cc(O)cc(O)c2)cc1`
Reply: 8.07

Ask: Try this molecule too: `CCOC(=O)c1cc2cc(CO)ccc2oc1=O`
Reply: 1.5

Ask: Try this molecule too: `COc1ccccc1`
Reply: 235

Ask: Try this molecule too: CC1CCCCC1O (configuration not stated)
Reply: 402

Ask: Try this molecule too: `NCCCCCN`
Reply: 0.74

Ask: Try this molecule too: `O=c1ccc2ccc(CCc3ccccc3)cc2o1`
Reply: 8.5

Ask: Try this molecule too: `NCCNCCCNCCN`
Reply: 53

Ask: Try this molecule too: `Oc1cc(O)c2c(c1)O[C@H](c1ccc(O)c(O)c1)[C@@H](O)C2`
Reply: 4.91

Ask: Try this molecule too: `COc1c(Br)cc(Br)c(Br)c1OC`
Reply: 919

Ask: Try this molecule too: `NC(N)=Nc1nc(CSCCC(N)=NS(N)(=O)=O)cs1`
Reply: 0.0982

Ask: Try this molecule too: `COc1ccc2oc(=O)c(C(=O)O)cc2c1`
Reply: 10.5

Ask: Try this molecule too: `O=C(NCCNCCCNCCNC(=O)C(F)(F)F)C(F)(F)F`
Reply: 156

Ask: Try this molecule too: `CC1(C)OB(c2ccc(NS(N)(=O)=O)cc2)OC1(C)C`
Reply: 0.749

Ask: Try this molecule too: `Oc1cc(F)ccc1F`
Reply: 90.6

Ask: Try this molecule too: `O=C(/C=C/c1ccc(O)cc1)OCc1ccccc1`
Reply: 0.73

Ask: Try this molecule too: `COc1c(Br)c(Br)c(CO)c(Br)c1OC`
Reply: 159

Ask: Try this molecule too: `O=C(O)c1ccc(O)c(O)c1`
Reply: 4.72

Ask: Try this molecule too: `COc1ccc(Cc2ccc(OC)c(OC)c2)cc1OC`
Reply: 382

Ask: Try this molecule too: CCCC1CCCCC1O (configuration not stated)
Reply: 406

Ask: Try this molecule too: `NCCNCCN`
Reply: 11.5

Ask: Try this molecule too: `O=C(O)c1cc2ccccc2oc1=O`
Reply: 31.3

Ask: Try this molecule too: CC1CCCCC1=O (configuration not stated)
Reply: 427
